Every entry's value here was drawn from patent US20230131899A1.

Listing: remaining activity at 100 µM of selected compounds
biological target: E. coli CsgA (Escherichia coli, UniProt P28307); construct: made in house; host or cells: E. coli NEB 3016 slyD::kan, pET11d; assay: In vitro ThioflavinT assay of CsgA aggregation (CsgA ThT Assay); format: biochemical; conditions: read-out: CsgA ThT Assay (2 μM CsgA) % Control Bmax 100 μM, mean Bmax as percentage of DMSO control; CsgA 2 μM, white plates; compound 100 μM
Sequence (P28307 23-151): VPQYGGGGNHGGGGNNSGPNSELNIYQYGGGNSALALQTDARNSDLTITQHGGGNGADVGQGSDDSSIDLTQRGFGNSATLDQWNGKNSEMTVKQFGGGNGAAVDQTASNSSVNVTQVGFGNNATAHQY

{"Compound": "CCCN1CC(C(=O)O)n2c(c(-c3cccc(C(F)(F)F)c3)c(Cc3cccc4ccccc34)c(NC(C)C)c2=O)S1(=O)=O (stereo not shown) [Compound 149]", "remaining activity at 100 µM, %": 115}
{"Compound": "O=C(O)C1CN(Cc2ccccn2)c2c(-c3cccc(C(F)(F)F)c3)c(Cc3cccc4ccccc34)c(Cl)c(=O)n21 (stereo not shown) [Compound 166]", "remaining activity at 100 µM, %": 40}
{"Compound": "O=C(O)C1CNc2c(-c3cccc(C(F)(F)F)c3)c(C(F)(F)c3cccc4ccccc34)cc(=O)n21 (stereo not shown) [Compound 134]", "remaining activity at 100 µM, %": 66}
{"Compound": "CCCN1CC(C(=O)O)n2c(c(-c3cccc(C(F)(F)F)c3)c(Cc3cccc4ccccc34)c(OCc3ccccc3)c2=O)S1(=O)=O (stereo not shown) [Compound 146]", "remaining activity at 100 µM, %": 63}
{"Compound": "O=C(O)C1CN(Cc2ccccc2)c2c(-c3cccc(C(F)(F)F)c3)c(Cc3cccc4cnccc34)c(Cl)c(=O)n21 (stereo not shown) [Compound 212]", "remaining activity at 100 µM, %": 56}
{"Compound": "CCCN1CC(C(=O)O)n2c1c(-c1cccc(C(F)(F)F)c1)c(Cc1cccc3ccccc13)c(Cl)c2=O (stereo not shown) [Compound 162]", "remaining activity at 100 µM, %": 49}
{"Compound": "O=C(O)C1CN(Cc2ccccc2)c2c(-c3cccc(C(F)(F)F)c3)c(Cc3cccc4cccnc34)c(Cl)c(=O)n21 (stereo not shown) [Compound 213]", "remaining activity at 100 µM, %": 44}

---

target: E. coli CsgA (Escherichia coli, UniProt P28307); construct: made in house; host or cells: E. coli NEB 3016 slyD::kan, pET11d; assay: In vitro ThioflavinT assay of CsgA aggregation (CsgA ThT Assay); type: biochemical; conditions: read-out: CsgA ThT Assay (2 μM CsgA) % Control Bmax 100 μM, mean Bmax as percentage of DMSO control; CsgA 2 μM, white plates; compound 100 μM
Quick reference: remaining activity at 100 µM of the listed items.

{"Compound": "CCCN1CC(C(=O)O)n2c(c(-c3cccc(C(F)(F)F)c3)c(Cc3cccc4ccccc34)c(C(N)=O)c2=O)S1(=O)=O (stereo not shown)", "Assayed Target": "E. coli CsgA (Escherichia coli, UniProt P28307)", "remaining activity at 100 µM / %": 17}
{"Compound": "O=C(O)C1CN(CCc2ccccc2)c2c(-c3cccc(C(F)(F)F)c3)c(Cc3cccc4ccccc34)c(Cl)c(=O)n21 (stereo not shown)", "Assayed Target": "E. coli CsgA (Escherichia coli, UniProt P28307)", "remaining activity at 100 µM / %": 9}
{"Compound": "CCCCN1CC(C(=O)O)n2c1c(-c1cccc(C(F)(F)F)c1)c(Cc1cccc3ccccc13)c(Cl)c2=O (stereo not shown)", "Assayed Target": "E. coli CsgA (Escherichia coli, UniProt P28307)", "remaining activity at 100 µM / %": 42}
{"Compound": "COc1ccc(CN2CC(C(=O)O)n3c2c(-c2cccc(C(F)(F)F)c2)c(Cc2cccc4ccccc24)c(Cl)c3=O)cc1 (stereo not shown)", "Assayed Target": "E. coli CsgA (Escherichia coli, UniProt P28307)", "remaining activity at 100 µM / %": 95}
{"Compound": "O=C(O)C1CN(CCCCCO)c2c(-c3cccc(C(F)(F)F)c3)c(Cc3cccc4ccccc34)c(Cl)c(=O)n21 (stereo not shown)", "Assayed Target": "E. coli CsgA (Escherichia coli, UniProt P28307)", "remaining activity at 100 µM / %": 99}
{"Compound": "O=C(O)C1CNS(=O)(=O)c2c(-c3cccc(C(F)(F)F)c3)c(C(F)(F)c3cccc4ccccc34)cc(=O)n21 (stereo not shown)", "Assayed Target": "E. coli CsgA (Escherichia coli, UniProt P28307)", "remaining activity at 100 µM / %": 50}
{"Compound": "CN1CC(C(=O)O)n2c(c(-c3cccc(C(F)(F)F)c3)c(Cc3cccc4ccccc34)c(C(=O)N3CCOCC3)c2=O)S1(=O)=O (stereo not shown)", "Assayed Target": "E. coli CsgA (Escherichia coli, UniProt P28307)", "remaining activity at 100 µM / %": 116}
{"Compound": "CCCNC(=O)c1c(Cc2cccc3ccccc23)c(-c2cccc(C(F)(F)F)c2)c2n(c1=O)C(C(=O)O)CN(C)S2(=O)=O (stereo not shown)", "Assayed Target": "E. coli CsgA (Escherichia coli, UniProt P28307)", "remaining activity at 100 µM / %": 63}
{"Compound": "N#Cc1cccc(CN2CC(C(=O)O)n3c2c(-c2cccc(C(F)(F)F)c2)c(Cc2cccc4ccccc24)c(Cl)c3=O)c1 (stereo not shown)", "Assayed Target": "E. coli CsgA (Escherichia coli, UniProt P28307)", "remaining activity at 100 µM / %": 47}
{"Compound": "CC(C)NC(=O)c1c(Cc2cccc3ccccc23)c(-c2cccc(C(F)(F)F)c2)c2n(c1=O)C(C(=O)O)CN(C)S2(=O)=O (stereo not shown)", "Assayed Target": "E. coli CsgA (Escherichia coli, UniProt P28307)", "remaining activity at 100 µM / %": 124}
{"Compound": "O=C(O)C1CN(Cc2ccccc2)c2c(-c3cccc(C(F)(F)F)c3)c(Cc3cccc4ccccc34)c(Br)c(=O)n21 (stereo not shown)", "Assayed Target": "E. coli CsgA (Escherichia coli, UniProt P28307)", "remaining activity at 100 µM / %": 16}
{"Compound": "O=C(O)C1CN(Cc2ccc(CO)cc2)c2c(-c3cccc(C(F)(F)F)c3)c(Cc3cccc4ccccc34)c(Cl)c(=O)n21 (stereo not shown)", "Assayed Target": "E. coli CsgA (Escherichia coli, UniProt P28307)", "remaining activity at 100 µM / %": 38}
{"Compound": "CN1CC(C(=O)O)n2c(c(-c3cccc(C(F)(F)F)c3)c(Cc3cccc4ccccc34)c(C(=O)NC(C)(C)C)c2=O)S1(=O)=O (stereo not shown)", "Assayed Target": "E. coli CsgA (Escherichia coli, UniProt P28307)", "remaining activity at 100 µM / %": 72}

---

Entries and their inhibition at 100 µM
target: human α-synuclein (Homo sapiens); construct: the full-length gene for untagged human α-synuclein was inserted; made in house; host or cells: E. coli BL21(DE3), plasmid derived from pT7 or pET11a; test: Cell-free Thioflavin T assay of α-synuclein aggregation (αSyn ThT Assay); assay type: biochemical; settings: αSyn 50 μM; compounds at 100 μM; class symbol; read-out: αSyn ThT Assay % Inhibition (activity range)

{"Compound": "COc1ccc(CN2C[C@@H](C(=O)O)n3c(c(-c4cccc(C(F)(F)F)c4)c(Cc4cccc5ccccc45)cc3=O)S2(=O)=O)cc1 (single isomer, unassigned) [Compound 026a]", "inhibition at 100 µM": "31 to 60%"}
{"Compound": "O=C(O)CN1CC(C(=O)O)n2c(c(-c3cccc(C(F)(F)F)c3)c(Cc3cccc4ccccc34)cc2=O)S1(=O)=O (stereo not drawn)", "inhibition at 100 µM": "11 to 30%"}
{"Compound": "CN(C)Cc1c(Cc2cccc3ccccc23)c(-c2cccc(C(F)(F)F)c2)c2n(c1=O)C(C(=O)O)CS2 (stereo not drawn)", "inhibition at 100 µM": "-10 to 10%"}
{"Compound": "O=C(O)C1CN(C[C@H](O)CO)S(=O)(=O)c2c(-c3cccc(C(F)(F)F)c3)c(Cc3cccc4ccccc34)cc(=O)n21 (stereo partly drawn) [Compound 065a]", "inhibition at 100 µM": "31 to 60%"}
{"Compound": "CC1(C(=O)O)CNS(=O)(=O)c2c(-c3cccc(C(F)(F)F)c3)c(Cc3cccc4ccccc34)cc(=O)n21 (stereo not drawn)", "inhibition at 100 µM": "> 60%"}
{"Compound": "CN(C)CCN1CC(C(=O)O)n2c(c(-c3cccc(C(F)(F)F)c3)c(Cc3cccc4ccccc34)cc2=O)S1(=O)=O (stereo not drawn)", "inhibition at 100 µM": "31 to 60%"}

---

biological target: E. coli CsgA (Escherichia coli); construct: made in house; host or cells: E. coli NEB 3016 slyD::kan, pET11d; test: In vitro ThioflavinT assay of CsgA aggregation (CsgA ThT Assay); type: biochemical; conditions: read-out: CsgA ThT Assay (2 μM CsgA) % Control Bmax 100 μM, activity range, class symbol; CsgA 2 μM, white plates; compound 100 μM

{"Compound": "NC(=O)c1c(Cc2cccc3ccccc23)c(-c2cccc(C(F)(F)F)c2)c2n(c1=O)C(C(=O)O)CN(CCCCO)S2(=O)=O (stereo not drawn)", "remaining activity at 100 µM": "11 to 31%"}
{"Compound": "O=C(O)C1CN(CCCCCCN2CC(C(=O)O)n3c2c(-c2cccc(C(F)(F)F)c2)c(Cc2cccc4ccccc24)c(Cl)c3=O)c2c(-c3cccc(C(F)(F)F)c3)c(Cc3cccc4ccccc34)c(Cl)c(=O)n21 (stereo not drawn)", "remaining activity at 100 µM": "< 10%"}
{"Compound": "CCCN1CC(C(=O)O)n2c(c(-c3cccc(C(F)(F)F)c3)c(Cc3cccc4ccccc34)c(O)c2=O)S1(=O)=O (stereo not drawn)", "remaining activity at 100 µM": "> 60%"}
